- PROTOCOL DETAILS: Solubility test of sulfate (Crystalline form III) in various solvents
- Format: physicochemical
- CONDITION INFO: organic solvent or mixture, thermodynamic from solid; Heptane, 25° C.; read-out: Solubility

- COMPOUND: "O=S1(=O)CCN(Cc2cc(NC3CCOCC3)c3[nH]c(-c4ccccc4)cc3c2)CC1 [Sulfate]"
  solubility: "< 2000 µg/mL"

* * *

- PROTOCOL DETAILS: Oral administration pharmacokinetic test using mice
- CONDITION INFO: mice, oral, 10 mg/kg
Measured AUClast accompanies every entry in the list below.
MEASUREMENT TYPE: AUClast (ng·h/mL)

- COMPOUND: "Cc1ccc(S(=O)(=O)O)cc1.O=S1(=O)CCN(Cc2cc(NC3CCOCC3)c3[nH]c(-c4ccccc4)cc3c2)CC1 [Tosylate]"
  EXPERIMENTAL VALUE: 18850.98
- COMPOUND: "Cl.O=S1(=O)CCN(Cc2cc(NC3CCOCC3)c3[nH]c(-c4ccccc4)cc3c2)CC1 [Hydrochloride]"
  EXPERIMENTAL VALUE: 12261.43
- COMPOUND: "CS(=O)(=O)O.O=S1(=O)CCN(Cc2cc(NC3CCOCC3)c3[nH]c(-c4ccccc4)cc3c2)CC1 [Mesylate]"
  EXPERIMENTAL VALUE: 10119.7
- COMPOUND: "O=C(O)/C=C\\C(=O)O.O=S1(=O)CCN(Cc2cc(NC3CCOCC3)c3[nH]c(-c4ccccc4)cc3c2)CC1 [Maleate]"
  EXPERIMENTAL VALUE: 15780.45

* * *

- PROTOCOL DETAILS: Solubility test of sulfate (Crystalline form III) in various solvents
- Format: physicochemical
- CONDITION INFO: organic solvent or mixture, thermodynamic from solid; iPrOAc, 50° C.; read-out: Solubility

- COMPOUND: "O=S1(=O)CCN(Cc2cc(NC3CCOCC3)c3[nH]c(-c4ccccc4)cc3c2)CC1 [Sulfate]"
  solubility: "< 2000 µg/mL"

* * *

- PROTOCOL DETAILS: Solubility test of sulfate (Crystalline form III) in various solvents
- Type: physicochemical
- CONDITION INFO: organic solvent or mixture, thermodynamic from solid; iPrOAc, 25° C.; read-out: Solubility

- MOLECULE: "O=S1(=O)CCN(Cc2cc(NC3CCOCC3)c3[nH]c(-c4ccccc4)cc3c2)CC1 [Sulfate]"
  solubility: "< 2000 µg/mL"

* * *

- PROTOCOL DETAILS: Physicochemical stability test of free form and 5 salts (60° C., 40° C./75% humidity, light)
- CONDITION INFO: 60° C., 1 w
Measured Assay accompanies every entry in the list below.
MEASUREMENT TYPE: Assay (%)

- MOLECULE: "O=S1(=O)CCN(Cc2cc(NC3CCOCC3)c3[nH]c(-c4ccccc4)cc3c2)CC1 [Sulfate]"
  EXPERIMENTAL VALUE: 110.59
- MOLECULE: "Cc1ccc(S(=O)(=O)O)cc1.O=S1(=O)CCN(Cc2cc(NC3CCOCC3)c3[nH]c(-c4ccccc4)cc3c2)CC1 [Tosylate]"
  EXPERIMENTAL VALUE: 108.33
- MOLECULE: "Cl.O=S1(=O)CCN(Cc2cc(NC3CCOCC3)c3[nH]c(-c4ccccc4)cc3c2)CC1 [Hydrochloride]"
  EXPERIMENTAL VALUE: 110.29
- MOLECULE: "CS(=O)(=O)O.O=S1(=O)CCN(Cc2cc(NC3CCOCC3)c3[nH]c(-c4ccccc4)cc3c2)CC1 [Mesylate]"
  EXPERIMENTAL VALUE: 107.36
- MOLECULE: "O=C(O)/C=C\\C(=O)O.O=S1(=O)CCN(Cc2cc(NC3CCOCC3)c3[nH]c(-c4ccccc4)cc3c2)CC1 [Maleate]"
  EXPERIMENTAL VALUE: 110.00
